Where do the numbers come from? From the supplement of paper PMC10127200.

System: OVCAR4
Assay: Euclidean distance of Cell Painting phenotypic profile (signed KS, 77 features) to DMSO centroid (dimensionless distance); 5 or 10 uM (library dependent); higher = stronger phenotypic change vs DMSO (phenoactivity)
Conditions: 48 h
Assay metric: Euclidean distance
One number for each entry.

As a guide, the following entries are already answered.
CCC[C@H](N[C@@H](C)C(=O)N1[C@H](C(=O)O)C[C@@H]2CCCC[C@@H]21)C(=O)OCC = 0.854
Oc1ccc([C@H]2COc3cc(O)ccc3C2)cc1 (racemic) = 0.928
O=C(CCCCCN1C(=O)c2cccc3cccc(c23)C1=O)NO = 3.33

Continue with the compound presented below.
IN: # query: Euclidean distance | item C=C1C(=O)O[C@H]2[C@H]1CC/C(C)=C/CC[C@@]1(C)O[C@@H]21 [(-)-Parthenolide] | system: OVCAR4
OUT: 1.16

====

Tested on: HEPG2
Experiment: Euclidean distance of Cell Painting phenotypic profile (signed KS, 77 features) to DMSO centroid (dimensionless distance); 5 or 10 uM (library dependent); higher = stronger phenotypic change vs DMSO (phenoactivity)
Conditions: 48 h
We use 1 as the dividing line for Euclidean distance: on or above the line is YES, below is NO.

CCCCCCCCCC(=O)N[C@@H](Cc1c[nH]c2ccccc12)C(=O)N[C@H](CC(N)=O)C(=O)N[C@@H](CC(=O)O)C(=O)N[C@@H]1C(=O)NCC(=O)N[C@@H](CCCN)C(=O)N[C@@H](CC(=O)O)C(=O)N[C@H](C)C(=O)N[C@@H](CC(=O)O)C(=O)NCC(=O)N[C@H](CO)C(=O)N[C@@H]([C@H](C)CC(=O)O)C(=O)N[C@@H](CC(=O)c2ccccc2N)C(=O)O[C@@H]1C [Daptomycin] = NO
CN[C@@H]1[C@H](O)[C@H](NC)[C@H]2O[C@@]3(O)C(=O)C[C@@H](C)O[C@H]3O[C@@H]2[C@H]1O [Spectinomycin 2HCl] = NO
NC(=O)c1cnc2[nH]ccc2c1N[C@@H]1[C@@H]2CC3C[C@H]1C[C@@](O)(C3)C2 = YES
Cc1[nH]nc2ccc(-c3cncc(OC[C@@H](N)Cc4ccccc4)c3)cc12 = YES
CO[C@@H]1[C@@H](O[C@@H]2O[C@H](C)[C@@H](O[C@H]3C[C@@](C)(O)[C@@H](OC(=O)CC(C)C)[C@H](C)O3)[C@H](N(C)C)[C@H]2O)[C@@H](CC=O)C[C@@H](C)[C@@H](O)/C=C/C=C/C[C@@H](C)OC(=O)C[C@H]1O [Kitasamycin] = NO
CN[C@@H]1[C@@H](O)[C@@H](O[C@@H]2[C@@H](O)[C@H](O[C@H]3O[C@H](CN)[C@@H](O)[C@H](O)[C@H]3O)[C@@H](N)C[C@H]2NC(=O)[C@@H](O)CN)OC[C@]1(C)O [Isepamicin Sulphate] = NO
Cn1cc(C2=C(c3ccc(Cl)cc3Cl)C(=O)NC2=O)c2ccccc21 = YES
CC[C@H](C)C(=O)O[C@H]1C[C@@H](C)C=C2C=C[C@H](C)[C@H](CC[C@@H]3C[C@@H](O)CC(=O)O3)[C@H]21 [Lovastatin] = YES

IN: Answer whether Euclidean distance of CC(C)(CO)[C@@H](O)C(=O)NCCC(=O)NCCSSCCNC(=O)CCNC(=O)[C@H](O)C(C)(C)CO [D-Pantethine] is greater than or equal to 1.
OUT: NO

IN: Quick check, Euclidean distance >= 1? CC(=O)Nc1ccc(NC(=S)NC(=O)c2ccc(C(C)(C)C)cc2)cc1 [Tenovin-1]
OUT: YES

IN: # check: Euclidean distance of O=C(/C=C/C#Cc1cccc(NS(=O)(=O)c2ccccc2)c1)NO [Oxamflatin] is greater than or equal to 1
OUT: YES
